Recorded growth values for a group of compounds are listed next.
Tested on: SK-MEL-2 melanoma
Test: NCI-60 one-dose screen, 48 h (100 = growth as untreated, 0 = no growth, -100 = all killed)
Conditions: 10 µM unless noted
Experimental: Growth inhibition of the SK-MEL-2 human tumor cell line is measured as a screen for anti-cancer activity. Cells are grown in 96 well plates and exposed to the test compound for 48 hours. Compounds are tested at a single concentration, which is 10^-5 M for most compounds. The reported endpoint is percent growth (GI% or GIPRCNT), where numbers from 0 - 100% represent growth inhibition, and numbers from -100% - 0 represent cell death. For example, a value of 40 represents 60% growth inhibition. […]
The panel holds about 83,000 compounds, 20% with a hit somewhere; the sample as a whole holds those more often. The source made the active and inactive calls. Rule for the calls: active = growth percent below 10; inactive = the rest.

Answered cases to consult:
1) COc1cc(-c2nc3cc(Cl)c(Cl)cc3[nH]2)ccc1OCc1nnc(-c2cccs2)o1 ... 65.7% (inactive)
2) O=C(C1=CNC(=S)NC1c1ccc(O)cc1)c1cc2ccccc2oc1=O (stereo not drawn) ... 101% (inactive)
3) N#Cc1c(-c2cccc3ccccc23)cc(-c2cccc(OCC(=O)O)c2)[nH]c1=O ... 115% (inactive)
4) COc1ccc(C(=O)/C=C/c2c(F)cccc2Cl)cc1S(N)(=O)=O ... 25.1% (inactive)
5) COc1cc2c(c(OC)c1OC)C(=O)CC(c1cccc(NC(=O)c3cccc(NC(=O)[C@H](C)NC(=O)OC(C)(C)C)c3)c1)O2 (stereo partly drawn) ... 50.9% (inactive)
6) Cn1cc(NC(=O)c2cc(NC(=O)c3ccc(C#Cc4ccccc4)cc3)cn2C)cc1C(=O)NCCCN1CCOCC1 ... 86.2% (inactive)
7) Cc1ccc(NC(=O)[C@]23CCC(C)(C)CC2C2=CCC4[C@@]5(C)C[C@@H](O)[C@H](O)[C@@](C)(CO)C5CC[C@@]4(C)[C@]2(C)CC3)cc1 (stereo partly drawn) ... 34.1% (inactive)
8) CC(=O)Nc1cccc(-c2nc3cc(-c4ccc(O)cc4)ccc3n2C)c1 ... 52.6% (inactive)

Prompt line: Fill blank: measured growth of the compound CC(=O)OC[C@@]1(C)C2CC[C@]3(C)C(CC=C4C5CC(C)(C)CC[C@]5(C(=O)Nc5ccc(Br)cc5)CC[C@]43C)[C@@]2(C)C[C@@H](OC(C)=O)[C@@H]1OC(C)=O (stereo partly drawn) is ____.
Response line: 42.2% (inactive)

Prompt line: Entry under review: CC(C)C(C(=O)O)n1c(O)c(/C=C2/C=c3cc4c(cc3=NC2=O)OCO4)sc1=S (stereo not drawn) . Reported growth?
Response line: 104% (inactive)

---

System: T-47D breast
Assay: NCI-60 one-dose screen, 48 h
Conditions: 10 µM unless noted
Procedure: Growth inhibition of the T-47D human tumor cell line is measured as a screen for anti-cancer activity. Cells are grown in 96 well plates and exposed to the test compound for 48 hours. Compounds are tested at a single concentration, which is 10^-5 M for most compounds. The reported endpoint is percent growth (GI% or GIPRCNT), where numbers from 0 - 100% represent growth inhibition, and numbers from -100% - 0 represent cell death. For example, a value of 40 represents 60% growth inhibition. […]
About 83,000 compounds went through this panel and 20% of them were active in at least one assay; those are over-represented in the sample as a whole. Active and inactive are the calls of the source. How the source made its calls: active means growth percent below 10; inactive means the rest.
// one of 1 (yes) = active, 0 (no) = inactive, no free text

1. CC(=O)Oc1ccccc1C(=O)[Se]CC(=O)Nc1cccc(C(F)(F)F)c1 ... 0 (no)
2. COc1ccc(N2N=C(c3ccc4c(c3)OCO4)CC2c2cccc(NC(=O)CCNS(=O)(=O)c3ccc(Cl)cc3)c2)cc1 (centres undefined) ... 0 (no)
3. COC(=O)C[C@](O)(CCCC(C)(C)O)C(=O)O[C@H]1C(OC)=C[C@@]23CCCN2CCc2cc4c(cc2[C@@H]13)OCO4 ... 1 (yes)
4. O=C(O)c1ccc(-c2ccc(/C=N/NC(=O)c3[nH]c4ccc(Br)cc4c3-c3ccccc3)o2)cc1 ... 0 (no)
5. COc1ccccc1/C=C/C(=O)c1ccc(OC)c(S(N)(=O)=O)c1 ... 0 (no)
6. COc1ccc(-c2ccc(SCC(=O)Nc3ccc(S(N)(=O)=O)cc3Br)nn2)cc1 ... 0 (no)
7. Cc1ccc(C(=O)CSc2nc3ccc(F)cc3c(=O)n2-c2ccc(Cl)cc2)cc1 ... 0 (no)
8. COc1cc(NC(=O)c2cccc(C3CCc4c(cc(OC)c(OC)c4OC)O3)c2)cc(OC)c1OC (centres undefined) ... 0 (no)
9. COc1cc(-c2cc(-c3cccc(OCC(=O)O)c3)[nH]c(=O)c2C#N)cc(OC)c1OC ... 0 (no)
10. COc1cc(-c2ccc(/C=N/NC(=O)c3[nH]c4ccc(Br)cc4c3-c3ccccc3)s2)cc(OC)c1OC ... 0 (no)

Please turn your attention to the following entry.
Prompt line: // return assay outcome for Cn1cc(-c2nc(N)nnc2-c2c[nH]c3ccc(F)cc23)c2cccnc21
Response line: 0 (no)

---

Measured growth, listed per entry.
tested on: KM12 colon; assay: NCI-60 one-dose screen, 48 h (100 = growth as untreated, 0 = no growth, -100 = all killed); conditions: 10 µM unless noted
About 83,000 compounds went through this panel and 20% of them were active in at least one assay; those are over-represented in the sample as a whole.
Provide only the numeric value, understood in %.

Previously resolved entries follow.
1. CCCCCCCCc1ccc(S(=O)(=O)Nc2ccc(CC)cc2C(=O)O)cc1 ... 97.7
2. COc1ccc(C(=O)/C=C/c2ccc(OCc3ccccc3)c(OC)c2)cc1OC ... 16
3. N#Cc1c(-c2cccc(O)c2O)cc(-c2ccc3ccccc3c2)[nH]c1=O ... 19.5
4. CN1CCN(Cc2ccc(C(=O)Nc3cccc(C#Cc4cccc5[nH]nc(N)c45)c3)cc2C(F)(F)F)CC1 ... -68.8
5. COc1cc(NC(=O)c2cccc(C3CCc4c(cc(OC)c(OC)c4OC)O3)c2)cc(OC)c1OC (centres undefined) ... 0.726

Prompt line: Requested field: growth. Item: N#Cc1c(-c2ccc(Br)cc2)nc2n[nH]c(-c3ccc(Br)cc3)c2c1-c1ccc(C(F)(F)F)cc1
Response line: 10.9

Prompt line: Fill blank: measured growth of the compound N#Cc1ccc(/C=N/NC(=O)c2[nH]c3ccc(Br)cc3c2-c2ccccc2)o1 is ____.
Response line: 6.36

Prompt line: I'd like to know its growth. The compound in question is Nc1n[nH]c2cccc(C#Cc3cccc(NC(=O)c4cccc(Cl)c4)c3)c12
Response line: 20.2

Prompt line: Entry C/C(=N\N=C1/C(=O)Nc2ccccc21)c1ccc2c(c1)Nc1ccccc1S2 : reported growth = ?
Response line: 66.4

---

system: T-47D breast; experiment: NCI-60 one-dose screen, 48 h (100 = growth as untreated, 0 = no growth, -100 = all killed); conditions: 10 µM unless noted
The panel holds about 83,000 compounds, 20% with a hit somewhere; the sample as a whole holds those more often. The source made the active and inactive calls. Rule for the calls: active = growth percent below 10; inactive = the rest.
Readout Name: growth

1. COc1cc(-c2nc3ccc(C)cc3[nH]2)ccc1OCc1nnc(-c2ccc(Br)cc2)o1 ... -14.6% (active)
2. COC(=O)/C=C/c1cccc2c1C(=O)NC(C)(c1cc3cc4ccccc4cc3oc1=O)N2 (stereo not drawn) ... 71.8% (inactive)
3. CCS(=O)(=O)N1CCCC(C(=O)Nc2nc3ccc(NC(=O)c4ccc(F)c(OC)c4F)cc3s2)C1 (stereo not drawn) ... 7.96% (active)
4. COc1cc(OC)c2c3nc4cc(C)c(C)cc4nc3n(CCN(C)C)c2c1 ... 60.7% (inactive)
5. O=C(COc1ccc(NC(=O)Nc2ccc(Cl)c(Cl)c2)cc1)N=Nc1c(O)[nH]c2ccc([N+](=O)[O-])cc12 ... 66% (inactive)

Prompt line: Give the measured growth of COc1ccc(/C=C/c2nc3ccccc3n3c(-c4ccc(Cl)cc4)nnc23)cc1 .
Response line: 80.6% (inactive)

Prompt line: Suppose we examine the molecule CC(=O)OCC1OC(OC2C(COC(C)=O)OC(n3cc(COc4ccc5ccc(=O)oc5c4)nn3)C(OC(C)=O)C2OC(C)=O)C(OC(C)=O)C(OC(C)=O)C1OC(C)=O (stereo not drawn) ; what growth value has been reported?
Response line: 103% (inactive)

Prompt line: What does the record list as growth for O=c1onc(-c2cc3ccccc3nc2Cl)n1-c1cccc2ccccc12 ?
Response line: 3.09% (active)

Prompt line: Please look up its growth: Cn1cc(-c2cc(N)n3nc(-c4c[nH]c5ccccc45)cc3n2)c2cc(Br)cnc21
Response line: -56% (active)

---

test system: NCI-H23 lung; experiment: NCI-60 one-dose screen, 48 h (100 = growth as untreated, 0 = no growth, -100 = all killed); details: 10 µM unless noted
Compounds without any hit were thinned out: in the full panel of roughly 83,000, 20% have a hit.
Answer not fulfilled if growth is under 30%, and fulfilled if it is 30% or more.

1) COc1ccc(-c2nc3cc(C)ccc3n2CC(=O)N=Nc2c(O)[nH]c3ccc(Cl)cc23)cc1 ... not fulfilled
2) CC(=O)Oc1ccccc1C(=O)[Se]CC(=O)Nc1cccc(C(F)(F)F)c1 ... not fulfilled
3) CN(C)c1ccnc(CNCCSC2(c3ccc(C(F)(F)F)cc3)c3ccccc3C=Cc3ccccc32)c1 ... not fulfilled

Prompt line: Kindly determine if growth recorded for COc1ccc2nc(Nc3cccc(NC(=O)c4ccc(CN5CCCN(C)CC5)c(C(F)(F)F)c4)c3)ccc2c1 is above or exactly 30%.
Response line: not fulfilled

Prompt line: Check the entry COc1ccc(C2=NN(c3ccccc3)C(c3ccc(OC)c(OCc4ccccc4)c3)C2)cc1OC (stereo not drawn) : does growth equal or exceed 30%?
Response line: fulfilled

Prompt line: Record Cc1ccccc1[C@H]1C(C(=O)c2ccc(Cl)cc2)C2(N[C@@H]1c1ccccc1)C(=O)Nc1ccc(Cl)cc12 (stereo partly drawn) ; criterion: growth no lower than 30%. Met?
Response line: not fulfilled

Prompt line: Assess whether reported growth for O=C(NNc1nc2cc(F)ccc2n2c(CN3CCCCC3)ccc12)c1cnccn1 sits at 30% or higher.
Response line: not fulfilled
